src = patent US20230242658A1

Below, each of the binders is paired with its reported Kd value.
Molecular target: T1, histidine-labeled cynomolgus monkey 4-1BB protein (cynomolgus monkey)
T1 construct: also called Monkey 4-1BB protein antigen (histidine-labeled); cynomolgus monkey 4-1BB protein and his tag (Acrobiosystem, #41B-052H4)
Test: BLI Octet RED96, AHC sensor, his-tagged antigen
experimental readout: Kd (nM)

1. PR001836 (antibody, human IgG1, V domains shown, HCAb, heavy chain only, human IgG1 Fc; also called 1016P0020G4) VH: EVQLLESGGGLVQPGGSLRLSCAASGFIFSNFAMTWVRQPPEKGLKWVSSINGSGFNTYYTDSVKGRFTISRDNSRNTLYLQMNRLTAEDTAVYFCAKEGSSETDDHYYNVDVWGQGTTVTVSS | 8.89
2. PR001833 (antibody, human IgG1, V domains shown, HCAb, heavy chain only, human IgG1 Fc; also called 1016P0016F8) VH: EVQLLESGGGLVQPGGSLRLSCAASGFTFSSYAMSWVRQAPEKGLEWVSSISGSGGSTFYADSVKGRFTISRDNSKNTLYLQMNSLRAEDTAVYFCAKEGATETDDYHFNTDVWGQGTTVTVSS | 22.3
3. PR001838 (antibody, human IgG1, V domains shown, HCAb, heavy chain only, human IgG1 Fc; also called 1016P0030B2) VH: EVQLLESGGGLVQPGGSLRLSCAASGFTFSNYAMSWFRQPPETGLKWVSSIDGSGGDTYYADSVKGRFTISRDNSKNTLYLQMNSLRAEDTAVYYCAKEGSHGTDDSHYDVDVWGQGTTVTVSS | 10.3
4. PR001760 (antibody, human IgG1, V domains shown, HCAb, heavy chain only, human IgG1 Fc; also called 1016P0011G10) VH: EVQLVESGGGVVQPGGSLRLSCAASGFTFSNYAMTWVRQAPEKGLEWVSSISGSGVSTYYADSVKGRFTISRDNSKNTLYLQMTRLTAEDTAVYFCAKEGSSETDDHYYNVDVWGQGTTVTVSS | 20.6
